Source: patent US8575193B2

IC50 overview
target: rHDAC1 (Homo sapiens, UniProt Q13547); construct: FLAG; made in house; assay: rHDAC1 enzymatic assay (recombinant FLAG-HDAC1); format: biochemical; conditions: FLAG-HDAC1 from HEK293; 6 μM Ac-NH-GGK(Ac)-AMC, 3 h at 30° C.; read-out: rHDAC1 [pIC50] (converted)
Sequence (Q13547 whole entry): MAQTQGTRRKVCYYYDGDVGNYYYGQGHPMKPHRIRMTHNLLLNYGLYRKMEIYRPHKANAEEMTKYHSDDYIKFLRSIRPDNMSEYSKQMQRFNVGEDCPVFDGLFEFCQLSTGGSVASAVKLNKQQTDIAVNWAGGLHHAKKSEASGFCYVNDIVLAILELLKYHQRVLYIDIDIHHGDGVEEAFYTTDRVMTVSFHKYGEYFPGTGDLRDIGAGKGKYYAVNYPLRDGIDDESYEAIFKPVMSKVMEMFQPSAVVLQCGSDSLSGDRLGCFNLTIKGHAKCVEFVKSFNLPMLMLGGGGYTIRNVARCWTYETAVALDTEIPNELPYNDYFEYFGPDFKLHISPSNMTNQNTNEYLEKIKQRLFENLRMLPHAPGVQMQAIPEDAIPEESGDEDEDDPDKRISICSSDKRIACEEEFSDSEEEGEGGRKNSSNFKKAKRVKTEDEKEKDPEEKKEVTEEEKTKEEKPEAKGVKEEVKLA
Structures can show the parent of a compound that is named as a salt.

{"compound": "COc1ccc2[nH]c(C(=O)N3CCc4ccc(C(=O)NO)cc4C3)cc2c1 [Example 24]", "tested_target": "rHDAC1 (Homo sapiens, UniProt Q13547)", "observed": "0.1 to 10 µM"}

Ask: Can you look up the measured IC50 of O=C(NO)c1ccc2c(c1)CCN(C(=O)C1CCC1)C2 [Example 3] for me?
Result: 0.1 to 10 µM

Ask: What value of IC50 has been recorded for this entry: Cc1nccn1CC(=O)N1CCc2cc(C(=O)NO)ccc2C1 [Example 10, hydrochloride]
Result: 10 to 100 µM

Ask: State the recorded IC50 for this entry: O=C(NO)c1ccc2c(c1)CCN(C(=O)C1CC1)C2 [Example 16]
Result: 0.1 to 10 µM

Ask: Would you mind telling me what IC50 value was observed for O=C(NO)c1ccc2c(c1)CCN(C(=O)Cc1cccnc1)C2 [Example 8, hydrochloride] ?
Result: 10 to 100 µM
